- System: OVCAR-8
- experiment description: NCI tumour cell line growth inhibition, 48 h
Activity calls are given as the source filed them. Rule as the data show it: active = GI50 up to about 1.1 µM and inactive = higher.
Hi there, I'd appreciate the recorded GI50 for every entry that follows.

The measured GI50 associated with O=C1CSC(c2ccc(Cl)cc2)N1c1ccc(Oc2ccc(Cl)cc2)c(Cl)c1 (stereo not drawn) reads 17.5 µM (inactive)

The recorded GI50 for "Cc1ccc(C(C)(C)C[P+](C)(c2ccccc2)c2ccccc2)cc1" is 12.7 µM (inactive)

Quick note, GI50 for "Clc1cc2ccccc2c2ccccc12" landed at > 100 µM (inactive)

Memo: "COc1ccc(C[C@H](N)C(=O)N2C[C@@H](CO)C[C@@H](n3ccc(=O)[nH]c3=O)C2)cc1" , reported GI50: > 100 µM (inactive)

Just so you know, measured GI50 for Cc1ccc(C2C(C(=O)C(C)(C)C)N2S(=O)(=O)c2ccc(C)cc2)cc1 (stereo not drawn) came out at 21.3 µM (inactive)

Value of measured GI50 for the entry C=C1OC2OC(C)C(NC(=O)OCC(Cl)(Cl)Cl)C(OC(C)=O)C2O1 (stereo not drawn) : > 100 µM (inactive)

Form: molecule = "COc1cc(Cn2c3ccccc3c3cc(C)cc(OC)c32)cc2c1[nH]c1ccccc12" ; GI50 = 10.5 µM (inactive)

Form field GI50, entry "O=C(NC(OCc1ccccc1)(C(F)(F)F)C(F)(F)F)OCc1ccccc1" : 16.3 µM (inactive)

Given item O=P(Nc1ccccc1)(Oc1ccccc1)N(CCCl)CCCl (stereo not drawn) , the value recorded as its GI50 is 71.9 µM (inactive)

Entry under test: "Cc1cc2c(cc1Cl)S(=O)(=O)OC(c1ccc([N+](=O)[O-])cc1)=N2" . Its GI50 was > 100 µM (inactive)

Note to self: GI50 recorded for "C[n+]1c(-c2ccccc2)cc2/c(=C\c3ccccc3)c3ccccc3n21" was 0.361 µM (active)

Looking up "CCOC(=O)/C=C/C1(CCOC(C)=O)CCCCC1" , I see its GI50 listed as > 10 µM (inactive)

Looking up "OCc1cc2c(ccc3sc4ccc5sc6ccc7ncccc7c6c5c4c32)s1" , I see its GI50 listed as 12.1 µM (inactive)

What the record says about COC1OC(CO)C(O)C(NC(=O)N(C)N=O)C1O (stereo not drawn) : GI50 is > 100 µM (inactive)

Measured GI50 of "C=CCn1c(-c2ccc(Cl)cc2)cs/c1=N\c1ccccc1OC" : 27 µM (inactive)

// recorded GI50 for CC(=O)Nc1ccc2[nH]c(C(=O)N3CC(CCl)c4c3cc([N+](=O)[O-])c3ccccc43)cc2c1 (stereo not drawn) : 3.1 µM (inactive)

# molecule "CC1=N/C(=C\c2cccc3ccccc23)C(=O)O1" ; its GI50 = > 100 µM (inactive)

Item: "Nc1c(Cl)ncnc1N[C@@H]1C[C@H]1CO" | GI50: > 100 µM (inactive)

Quick note, GI50 for CC1(C)C2CCC13CS(=O)(=O)N1O[C@]13C(=O)O2 (stereo partly drawn) landed at > 100 µM (inactive)

// recorded GI50 for CC(N)Cc1ccc(C(=O)Cl)cc1 (stereo not drawn) : > 100 µM (inactive)

Reported GI50 for "Cc1nc2ccccn2c1/N=N/c1ccc(C(=O)NN)cc1" was 95.3 µM (inactive)

According to the records, this molecule COC(=O)CCC(NC(=S)N/N=C(\C)c1cnccn1)C(=O)OC (stereo not drawn) displays GI50 of 38.6 µM (inactive)

For reference, reported GI50 for CC(=O)OCC1OC(n2c(C#N)cc(=O)[nH]c2=O)CC1OC(C)=O (stereo not drawn) stands at > 100 µM (inactive)

So for "CCCNC1=C(C)C(=O)C2=C(C1=O)[C@H](COC(N)=O)[C@]1(OC)[C@@H]3N[C@@H]3CN21" , the logged GI50 turned out to be 10 µM (inactive)

Input COc1ccc(C2OCCN2C)cc1 (stereo not drawn) . Output GI50: > 100 µM (inactive)

Record "C(/C=N/c1ccccc1)=C(/Nc1ccccc1)c1ccc2ccccc2c1" , field GI50: 3.61 µM (inactive)

Noted for CCCCCC(O)C1C(=O)OC(C)C(O)/C=C/C=C/C=C/C=C\C=C(\C)C(O)CC(O)CC(O)CC(O)CC(O)CC(O)CC1O (stereo not drawn) : its GI50 reads > 50 µM (inactive)

The reported GI50 of the molecule C=C1C[C@@H]2CC[C@@]34CC5O[C@H]6C(O[C@H]7CC[C@H](CC(=O)O[C@@H]8[C@@H](C)[C@@H]9O[C@@H]%10C[C@]%11(C[C@@H]%12O[C@]%13(C[C@H](C)[C@@H]%14O[C@@H]%15CC(C(O)CO)O[C@@H]%15C[C@@H]%14O%13)C[C@H](C)[C@@H]%12O%11)O[C@@H]%10C[C@@H]9O[C@H]8CC8O[C@@H](CC[C@@H]1O2)C[C@@H](C)C8(O)CO)O[C@@H]7[C@@H]6O3)[C@H]5O4 (stereo partly drawn) was > 1 µM (active)

Entry CCOC(=O)N1C(c2ccccc2)C=CC(c2ccccc2)N1C(=O)OCC (stereo not drawn) ; GI50 = > 100 µM (inactive)

Lab book: GI50 of Nc1ncnc2c1ncn2C1OC(C(=O)OCCO)C(O)C1O (stereo not drawn) noted as > 100 µM (inactive)

// field: GI50; key: "CN(C)CCNC(=O)c1ccc(NC(=O)c2nc([N+](=O)[O-])cn2C)cc1" ; value = > 100 µM (inactive)

Entry under test: CC1(C)C=C(/C=C2/N(S(=O)(=O)C(F)(F)F)C(/C=C3/N(S(=O)(=O)C(F)(F)F)C(C)(C#N)CC3(C)C)=CC2(C)C)N=C1/C=C1/CC(C)(C)C(=O)N1 (stereo not drawn) . Its GI50 was 4.57 µM (inactive)

The molecule listed as "CCc1nnc(S)n1/N=C\c1ccc(-c2ccccc2Cl)o1" has a reported GI50 of 24.3 µM (inactive)

Entry C=C1CCC(OC(C)=O)C2(C)C(OC(C)=O)CC3OC3(C)C2C(OC(C)=O)C2C(C)C(=O)OC2C1Cl (stereo not drawn) , GI50 reported as > 100 µM (inactive)

Note to self: GI50 recorded for "COC(=O)Cc1cc(=O)n2c3ccccc3n(C)c2c1C#N" was > 100 µM (inactive)

What the record says about CC(C)(C)C1CCC2c3c([nH]c4ccccc34)C3C(=O)N(c4cc(Br)cc(Br)c4)C(=O)C3C2C1 (stereo not drawn) : GI50 is 16 µM (inactive)

Entry "C/C(=N/NC(=S)N1CCN(C(=S)N/N=C(/C)c2ccccn2)CC1)c1ccccn1" ; GI50 = 4.13 µM (inactive)

The molecule listed as "O=C(C(=O)n1ccc2ccccc21)c1c[nH]c2ccccc12" shows GI50 equal to > 10 µM (inactive)
